# Tested on: Wolbachia pipientis
# PROCEDURE SUMMARY: Anti-Wolbachia Cell-Based Screen
# Format: functional
# Parameters: scale not given: in the data most compounds retested in dose-response had high values
# ASSAY SETUP: 5 µM
In all, about 48,000 compounds went through this assay and about 13,000 (27%) showed an effect of 50% or more. The list shows a part of the results.
So basically, if Percent Effect comes in under 90% it's met, and if it's 90% or more it's not met.

Task: Bench note: check whether O=C(Nc1ccccc1)c1ccc(NCc2ccccc2CO)nn1 shows Percent Effect below 90%
Output: met

Task: I'd appreciate it if you could check whether Cc1nc2cc(O)nn2c(C)c1CCC(=O)NCCc1ccccc1 has Percent Effect smaller than 90%.
Output: met

Task: Say whether its Percent Effect is strictly beneath 90%. Entry: O=C(NC1CCC(C(=O)N2CCSCC2)CC1)N1CCC1 (stereo unspecified)
Output: met

Task: Please state whether Percent Effect is below 90% for Cc1noc(C)c1CS(=O)(=O)CC(=O)NCCc1ccccc1
Output: met

Task: Take the molecule Cc1nc(NC(=O)CCc2c(C)nc3cc(O)nn3c2C)sc1C and say whether its Percent Effect is less than 90%.
Output: not met

* * *

# Tested on: Wolbachia pipientis
# PROCEDURE SUMMARY: Anti-Wolbachia Cell-Based Screen
# Format: functional
# Parameters: scale not given: in the data most compounds retested in dose-response had high values
# ASSAY SETUP: 5 µM
Out of some 48,000 compounds screened, about 13,000 (27%) showed an effect of 50% or more. The list shows a part of the results.
REPORTED ENDPOINT: Percent Effect (%)
The response must be a number in % with no trailing unit.

Task: What does the data say about its Percent Effect? Entry: CCn1cc(CN2CCN(Cc3cc(C)cc(C)c3)C(=O)C2)cc1C#N
Output: -8.463

Task: Reported Percent Effect for Cc1csc(CN(C)CCCOc2cccc(C#N)c2)n1 : what is it?
Output: 1.685

Task: Given the entry Cc1ncccc1OC1(C(=O)NCCCN2CCOCC2)CCNCC1 , report its measured Percent Effect.
Output: -8.588

Task: What value of measured Percent Effect is listed for CCN(CCO)C(=O)C1CCC(=O)N(Cc2cccc(OC)c2)C1 (configuration not stated) ?
Output: 4.416

Task: Can you share its Percent Effect? I mean this compound: COc1ccc2c(c1)OCC(CNC(=O)c1ccc(=O)n(C)c1)C2 (configuration not stated)
Output: 0.3526

Task: Return reported Percent Effect; argument: CCN(C)S(=O)(=O)c1c(F)cc(NC(C)=O)cc1F
Output: 15.35

Task: Suppose we examine the compound Cc1ccc(C)c(OCc2cc(C(=O)N(C)Cc3cnn(C)c3)no2)c1 ; what Percent Effect value has been reported?
Output: -13.61

Task: # input compound: CCN(CCn1cccn1)C(=O)CN1C(=O)OC[C@@H]1C(C)C ; wanted: its Percent Effect
Output: -18.11

Task: Percent Effect lookup needed for CC(=O)c1cnc(NCCc2csc(-c3cnccn3)n2)nc1C , thanks.
Output: -3.465

Task: Request the reported Percent Effect associated with CCc1cnc(C)nc1NCCN1CCCC(C(N)=O)C1 (configuration not stated)
Output: 3.304

Task: Given the compound Cc1cnn(CC2CN(c3ncnc4c3CCC4)CCO2)c1 (configuration not stated) , what is its reported Percent Effect?
Output: -34.52

Task: Could you tell me which Percent Effect is on file for CC(C)COc1cncc(NC(CO)c2ccco2)n1 (configuration not stated) ?
Output: -5.064

* * *

Would you mind telling me the reported Percent Effect of each entry?
# Test system: Wolbachia pipientis
# PROCEDURE SUMMARY: Anti-Wolbachia Cell-Based Screen
# Assay type: functional
# Set-up: scale not given: in the data most compounds retested in dose-response had high values
# ASSAY SETUP: 5 µM
About 13,000 (27%) of roughly 48,000 compounds showed an effect of 50% or more. The list shows a part of the results.
Response body: numeric value in %, unit text excluded.

Task: // Percent Effect lookup, key: Cc1nn(C)c(Cl)c1C1CCCN1C(=O)c1cnn(C)c1C1CC1 (stereo not drawn)
Output: 93.32

Task: Report Percent Effect for CCc1ccc(C(=O)N2CCCC2c2c(C)nn(C)c2OC)o1 (stereo not drawn) please.
Output: 54.64

Task: Quick check: Percent Effect of COC(=O)C(C)(C)NC(=O)c1scnc1Cl ?
Output: 4.833

Task: Would you kindly share the measured Percent Effect for Cn1ccc(CN2CCC(CN3CCOCC3)CC2)cc1=O ?
Output: 93.59

Task: // query Percent Effect value for entry CC(O)c1cccc(N2CCC3(CCC(=O)N(CC(N)=O)C3)CC2)n1 (stereo not drawn)
Output: -13.92

Task: What Percent Effect value was documented for this compound, COc1c(C2CCCN2C(=O)c2csc(C(C)C)n2)c(C)nn1C (stereo not drawn) ?
Output: 8.615

Task: Param item = CC(C)c1cccc(N2CCCC3(CCC(=O)N(C4CC4)C3)C2)n1 (stereo not drawn) ; retrieve measured Percent Effect.
Output: 105.3

Task: Item under review: Cn1ccc(CN2CCN(CC3CC3)CC2)cc1=O . Reported Percent Effect?
Output: 107.4

Task: Dear colleague, I am looking for the recorded Percent Effect of the following compound: CC(C)CN1CCN(C)C2(CCN(c3nccs3)CC2)C1=O.O=C(O)C(F)(F)F
Output: -15.41

Task: Endpoint output: Percent Effect of N#Cc1cccc(N2CCC3(CCC(=O)N(CC4CCCO4)C3)CC2)n1 (stereo not drawn) . Value?
Output: -19.35

Task: Consider the compound shown here: COc1c(C2CCCN2C(=O)c2cnn(C)c2C2CC2)c(C)nn1C (stereo not drawn) What is its recorded Percent Effect?
Output: -4.592

Task: Consider the compound Cn1ccc(CN2CCC(CO)CC2)cc1=O and give its measured Percent Effect.
Output: -2.803

Task: Reported Percent Effect, compound N#Cc1cccc(N2CCC3(CCC(=O)N(CC(N)=O)C3)CC2)n1 : ____
Output: -17.91

Task: # Percent Effect lookup, item CCCc1nc(C)cc(N2CCC3(CCC(=O)N(C4CC4)C3)CC2)n1
Output: -0.6506

Task: Which Percent Effect value belongs to Cc1ccc(CN2CCC3(CC2)C(=O)N(CC(C)C)CCN3C)o1.O=C(O)C(F)(F)F.O=C(O)C(F)(F)F ?
Output: -29.49

Task: Look at this compound and give its reported Percent Effect. CCc1nccn1CCNC1CCN(c2nc3ccc(Cl)cc3s2)CC1
Output: -30.49

Task: Any idea what its Percent Effect is? The compound is O=C(NCC(O)c1cccc(O)c1)C1CCN(C2CCCCC2)CC1 (stereo not drawn)
Output: -14.15

Task: Reported Percent Effect for COc1c(C2CCCN2C(=O)c2ccco2)c(C)nn1C (stereo not drawn) : what is it?
Output: -0.9591

Task: Value lookup for Percent Effect; key = COC(=O)[C@H]1C[C@@H](O)CCN1S(=O)(=O)c1c(C)cc(OC)c(C)c1C
Output: -13.15

Task: Quick check: Percent Effect of N#Cc1cccc(N2CCCC3(CCC(=O)N(C4CCCC4)C3)C2)n1 (stereo not drawn) ?
Output: 106.1

Task: Bench note: what Percent Effect did COc1c(C2CCCN2C(=O)c2cc(C)on2)c(C)nn1C (stereo not drawn) show?
Output: 99.28

Task: Percent Effect lookup needed for CC1(NC(=O)CC2CCc3ccccc32)CCOCC1 (stereo not drawn) , thanks.
Output: -18.69

Task: Would you kindly share the measured Percent Effect for COc1c(C2CCCN2C(=O)c2cc(C3CC3)on2)c(C)nn1C (stereo not drawn) ?
Output: -11.04

* * *

# Test system: Wolbachia pipientis
# PROCEDURE SUMMARY: Anti-Wolbachia Cell-Based Screen
# Format: functional
# Set-up: scale not given: in the data most compounds retested in dose-response had high values
# ASSAY SETUP: 5 µM
The campaign covered roughly 48,000 compounds. About 13,000 (27%) showed an effect of 50% or more. The list shows a part of the results.
REPORTED ENDPOINT: Percent Effect (%)
Lab book: enter the figure in %, no units written.

Task: What value of Percent Effect has been recorded for this entry: Fc1ccc(Cn2ncc3c2CN(c2ncccn2)C3)cc1
Output: -12.4

Task: Entry O=C(N[C@]12CC1CN(C(=O)c1ccco1)C2)c1ccoc1 (some centres not stated) has what Percent Effect?
Output: -22.61

Task: Find the recorded Percent Effect belonging to Cc1ccc(OCCN(C)Cc2cscn2)cc1 and report it.
Output: -7.225

Task: Find the recorded Percent Effect belonging to Cc1nnc(CN(C)CCOc2cccc(Cl)c2)o1 and report it.
Output: 6.512

Task: Name the reported Percent Effect value associated with the molecule O=c1n(Cc2ccc(F)cc2)nc2ncccn12
Output: 93

Task: Item under review: Cc1nnc(CN(C)CCCOc2ccc(Cl)cc2)o1 . Reported Percent Effect?
Output: -9.497

Task: For the molecule shown here, CC(C)N(C)C(=O)CSCc1ccc(S(=O)(=O)N(C)C)o1 , give the reported Percent Effect.
Output: -4.323

Task: Fill blank: measured Percent Effect of the molecule Cc1cccc(C(C(=O)N2CCN(C(=O)c3ccc[nH]3)CC2)N(C)C)c1 (configuration not stated) is ____.
Output: 8.522

Task: Look up Percent Effect: CN(CCOc1ccc(Cl)cc1)Cc1ccc(S(=O)(=O)N(C)C)o1
Output: 82.71

Task: Fill blank: measured Percent Effect of the molecule Cc1cc(C)cc(OCCN(C)Cc2cscn2)c1 is ____.
Output: -4.131

Task: Dear colleague, I am looking for the recorded Percent Effect of the following molecule: O=c1n(CCSCc2ccccc2F)nc2ccccn12
Output: 16.6

Task: I have this molecule here, Cc1cc(C)cc(OCCN(C)Cc2ccc(S(=O)(=O)N(C)C)o2)c1 , and I need its recorded Percent Effect.
Output: 89.38
